- target: GST-tagged truncated human mutant G2019S LRRK2 (Homo sapiens, UniProt Q5S007, G2019S)
- Construct: GST-tagged truncated human mutant G2019S LRRK2; purchased Life Technologies Corporation (Carlsbad, CA)
- Sequence (Q5S007 970-2527 G2019S limits assumed): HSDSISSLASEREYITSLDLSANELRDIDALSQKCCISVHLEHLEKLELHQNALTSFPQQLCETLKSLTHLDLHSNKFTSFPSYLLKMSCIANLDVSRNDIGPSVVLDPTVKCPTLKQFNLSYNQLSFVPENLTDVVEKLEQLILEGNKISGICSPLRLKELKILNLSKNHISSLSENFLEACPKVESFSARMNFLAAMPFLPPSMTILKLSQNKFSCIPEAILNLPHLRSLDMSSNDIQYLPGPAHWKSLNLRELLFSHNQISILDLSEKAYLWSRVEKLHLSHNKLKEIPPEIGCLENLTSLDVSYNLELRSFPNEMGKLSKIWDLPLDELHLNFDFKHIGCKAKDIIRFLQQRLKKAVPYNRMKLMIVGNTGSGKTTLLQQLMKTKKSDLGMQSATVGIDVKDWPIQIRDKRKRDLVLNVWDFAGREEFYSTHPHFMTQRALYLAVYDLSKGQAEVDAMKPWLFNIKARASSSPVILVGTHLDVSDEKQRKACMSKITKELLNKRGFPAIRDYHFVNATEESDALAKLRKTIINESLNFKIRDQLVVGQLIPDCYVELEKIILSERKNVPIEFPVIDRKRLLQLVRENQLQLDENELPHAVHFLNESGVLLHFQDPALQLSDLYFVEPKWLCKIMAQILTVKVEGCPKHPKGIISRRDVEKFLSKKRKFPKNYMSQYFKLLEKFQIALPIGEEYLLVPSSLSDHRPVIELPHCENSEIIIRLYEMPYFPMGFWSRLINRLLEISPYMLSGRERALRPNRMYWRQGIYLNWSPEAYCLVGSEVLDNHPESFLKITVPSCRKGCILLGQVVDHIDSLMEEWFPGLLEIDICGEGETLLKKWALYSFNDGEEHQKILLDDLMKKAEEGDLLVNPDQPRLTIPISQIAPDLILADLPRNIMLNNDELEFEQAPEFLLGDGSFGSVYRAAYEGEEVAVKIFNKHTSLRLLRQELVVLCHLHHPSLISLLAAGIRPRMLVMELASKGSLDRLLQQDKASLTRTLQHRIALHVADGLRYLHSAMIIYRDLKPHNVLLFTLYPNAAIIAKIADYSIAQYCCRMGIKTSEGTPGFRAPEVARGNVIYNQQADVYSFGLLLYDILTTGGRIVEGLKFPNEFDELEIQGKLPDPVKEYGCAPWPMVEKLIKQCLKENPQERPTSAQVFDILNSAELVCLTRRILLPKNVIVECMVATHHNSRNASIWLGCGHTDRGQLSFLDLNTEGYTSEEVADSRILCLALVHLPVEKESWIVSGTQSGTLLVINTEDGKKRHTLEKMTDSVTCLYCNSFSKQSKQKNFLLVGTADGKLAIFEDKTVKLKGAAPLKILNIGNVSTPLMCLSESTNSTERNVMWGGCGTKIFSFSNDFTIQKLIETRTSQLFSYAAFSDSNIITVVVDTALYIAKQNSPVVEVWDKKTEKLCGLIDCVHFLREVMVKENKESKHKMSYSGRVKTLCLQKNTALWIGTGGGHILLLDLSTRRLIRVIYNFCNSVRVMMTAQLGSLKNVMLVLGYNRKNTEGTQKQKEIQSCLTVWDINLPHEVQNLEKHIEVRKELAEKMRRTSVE
- assay protocol: LRRK2 G2019S Km ATP LanthaScreen assay
- Format: biochemical
- experimental setup: 134 μM ATP (Km ATP), LRRKtide substrate, mean of several tests, read-out: LRRK2 pIC50 (converted)
- Text: Unless otherwise noted, all reactions are magnetically stirred. Unless otherwise noted, when diethyl ether is used in the experiments described below, it is Fisher ACS certified material and is stabilized with BHT. Unless otherwise noted, “concentrated” and/or “solvent removed under reduced pressure” means evaporating the solvent from a solution or mixture using a rotary evaporator or vacuum pump. […]
Just a reminder that ties go to f: only IC50 strictly below 0.2 nM counts as t.

Consider COCC1CCC1C(=O)Nc1cc2cc(N3CCN(C4(C)COCC4O)CC3)c(Cl)cc2cn1 (single isomer, unassigned) [Ex-1.25] . Does its IC50 lie strictly below 0.2 nM?
t

Consider C[C@]1(O)COC[C@@]1(C)N1CCN(c2cc3cc(NC(=O)[C@@H]4CC45CCOCC5)ncc3cc2Cl)CC1 (single isomer, unassigned) [Ex-17.1] . Does its IC50 lie strictly below 0.2 nM?
t

Consider Cc1cc2cnc(NC(=O)C3CC3c3ccccn3)cc2cc1N1CCN(C2(C)CCOC2)CC1 (single isomer, unassigned) [Ex-9.18] . Does its IC50 lie strictly below 0.2 nM?
f

Consider CC1C(C(=O)Nc2cc3cc(N4CCN(C5(C)COCC5F)CC4)c(Cl)cc3cn2)C1c1ccn(C)n1 (single isomer, unassigned) [Ex-10.15] . Does its IC50 lie strictly below 0.2 nM?
f

Consider Cc1cc2cnc(NC(=O)C3CC34CCOC4)cc2cc1N1CCN(C2(C)COCC2O)CC1 (single isomer, unassigned) [Ex-6.4] . Does its IC50 lie strictly below 0.2 nM?
f

----------
- target: GST-tagged truncated human mutant G2019S LRRK2 (Homo sapiens, UniProt Q5S007, G2019S)
- Construct: GST-tagged truncated human mutant G2019S LRRK2; purchased Life Technologies Corporation (Carlsbad, CA)
- assay protocol: LRRK2 G2019S Km ATP LanthaScreen assay
- Type: biochemical
- experimental setup: 134 μM ATP (Km ATP), LRRKtide substrate, mean of several tests, read-out: LRRK2 pIC50 (converted)
Provide the recorded IC50 for the entries that follow.
Expressed in nM, but write only the number.

Please look up its IC50: Cc1cc2cnc(NC(=O)C3CC34CCOC4)cc2cc1N1CCN(C2(C)COCC2O)CC1 (single isomer, unassigned) [Ex-6.9]
324

Please look up its IC50: CC1C(C(=O)Nc2cc3cc(N4CCN(C5(C)COCC5F)CC4)c(Cl)cc3cn2)C1c1ccn(C)n1 (single isomer, unassigned) [Ex-10.16]
7.94

Please look up its IC50: CC1(N2CCN(c3cc4cc(NC(=O)C5CC5C(F)F)ncc4cc3Cl)CC2)COCC1F (single isomer, unassigned) [Ex-10.76]
0.0813

Please look up its IC50: CC1(C#N)CCN(c2cc3cc(NC(=O)C4CC4c4cncnc4)ncc3cc2Cl)CC1 (single isomer, unassigned) [Ex-5.16]
427

----------
- target: GST-tagged truncated human mutant G2019S LRRK2 (Homo sapiens, UniProt Q5S007, G2019S)
- Construct: GST-tagged truncated human mutant G2019S LRRK2; purchased Life Technologies Corporation (Carlsbad, CA)
- assay protocol: LRRK2 G2019S Km ATP LanthaScreen assay
- Type: biochemical
- experimental setup: 134 μM ATP (Km ATP), LRRKtide substrate, mean of several tests
Provide the recorded LRRK2 pIC50 for the entries that follow.
Please state the value as a number alone, without comment.

Quick check: LRRK2 pIC50 on GST-tagged truncated human mutant G2019S LRRK2 (Homo sapiens, UniProt Q5S007, G2019S), item `CN1CCN(c2cc3cc(NC(=O)C4CC4)ncc3cc2Cl)CC1` ?
7.53

Quick check: LRRK2 pIC50 on GST-tagged truncated human mutant G2019S LRRK2 (Homo sapiens, UniProt Q5S007, G2019S), item CCC1C(C(=O)Nc2cc3cc(N4CCC(F)(C#N)CC4)c(Cl)cc3cn2)C1c1cnn(C)c1 (centres unmarked) ?
7.29

Quick check: LRRK2 pIC50 on GST-tagged truncated human mutant G2019S LRRK2 (Homo sapiens, UniProt Q5S007, G2019S), item `CC1(O)CC2(CN(c3cc4cc(NC(=O)C5CC5)ncc4cc3Cl)C2)C1` ?
7.72

Quick check: LRRK2 pIC50 on GST-tagged truncated human mutant G2019S LRRK2 (Homo sapiens, UniProt Q5S007, G2019S), item CC1(N2CCN(c3cc4cc(NC(=O)C5CC56CC6)ncc4cc3Cl)CC2)COC1 (centres unmarked) ?
7.85

Quick check: LRRK2 pIC50 on GST-tagged truncated human mutant G2019S LRRK2 (Homo sapiens, UniProt Q5S007, G2019S), item `O=C(Nc1cc2cc(N3CCN(C4COC4)CC3)c(Cl)cc2cn1)C1CC1` ?
7.99
